// data source = patent CN117836322A

- measurement_target: T1, SARS-CoV-2 S1结构域 (SARS-CoV-2, UniProt P0DTC2 16-681)
- T1 construct: also called S1亚基
- run_description: SPR (Biacore), antibody coupled to CM5 chip, viral protein as analyte, 25°C
pKd: −log10 of the molar value.
reported_property: pKd

Challenge: Supply pKd value. Item: Cv2.5213 IgG1 (antibody, V domains shown) VH: EVQLVESGGGLIQPGGSLRLSCAASGFTVSSNYMSWVRQAPGKGLEWVSLIYSGGSTYYADSVKGRFTISRDNSKNTLYLQMNSLRAEDTAVYYCARDLNYYGMDVWGQGATVTVSS VL: DIQMTQSPSSLSASVGDRVTITCRASQGISSYLAWYQQKPGKAPKLLIYAASTLQSGVPSRFSGSGSGTDFTLTISSLQPEDFATYYCQQLDSYSPFTFGPGTKVDIKR
Response given: > 6.00

Challenge: Return reported pKd. Input binder: Cv2.1353 IgG1 (antibody, V domains shown) VH: EVQLVESGGGLVQPGGSLRLSCAASGVTVSSNYMNWVRQAPGKGLEWVSVIYSGGSTFYADSVKGRFIISRDNSKNTLYLQMNSLKTEDTAVYYCARDLGPMGFDIWGQGTMVTVSS VL: DIQMTQSPSFLSASVGDRVTITCRASQGISSYLAWYQQKPGKAPKLLIYAASTLQSGVPSRFSGSGSGTEFTLTISSLQPEDFATYYCQQLNSDPPVTFGPGTKVDIKR
Response given: > 6.00

Challenge: Retrieve pKd measured for Cv2.3194 IgG1 (antibody, V domains shown) VH: EVQLVESGGGLIQPGGSLRLSCAASGITVTSNYMSWVRQAPGKGLEWVSVIYPGGSTFYADSVKGRFTISRDNSKNTLYLQMNSLRAEDTAVYYCARDLVVYGMDVWGQGTTVTVSS VL: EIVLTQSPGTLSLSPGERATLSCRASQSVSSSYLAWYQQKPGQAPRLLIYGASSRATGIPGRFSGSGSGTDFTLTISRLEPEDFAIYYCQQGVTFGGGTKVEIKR and print it.
Response given: > 6.00

Challenge: Please give the documented pKd of Cv2.3235 IgG1 (antibody, V domains shown) VH: EVQLVESGGGLIQPGGSLRLSCAASGFTVSRNYMSWVRQAPGKGLEWVSVIYSGGSTFYADSVKGRFTISRDNSKNTLYLQMNSLRAEDTAVYYCARDGDYYGMDVWGQGTTVTVSS VL: DIQMTQSPSFLSASVGDRVTITCRASQGISSFLAWYQQKPGKAPKLLIYGASTLQSGVTSRFSGSGSGTEFTLTISSLQPEDFATYYCQRLDSYPPITFGQGTRLEIKR
Response given: > 6.00
